Target: Talaromyces pinophilus GH62 arabinofuranosidase (Talaromyces pinophilus)
Construct: single-module GH62 enzyme, secreted from Aspergillus oryzae; about 35 kDa; amino-terminal residue Ser24; chain traced 25-325; 2 subunits in asymmetric unit; no tag mentioned
Sequence (A0A2H5BN17 entry or part of it): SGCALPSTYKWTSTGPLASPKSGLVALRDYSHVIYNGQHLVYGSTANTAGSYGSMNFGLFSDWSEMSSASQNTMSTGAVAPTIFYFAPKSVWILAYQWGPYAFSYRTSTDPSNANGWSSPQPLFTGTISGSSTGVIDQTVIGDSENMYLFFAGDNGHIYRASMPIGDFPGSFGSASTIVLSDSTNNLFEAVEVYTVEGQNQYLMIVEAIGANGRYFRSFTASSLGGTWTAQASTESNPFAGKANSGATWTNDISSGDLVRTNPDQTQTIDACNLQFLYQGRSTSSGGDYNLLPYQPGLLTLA
Assay: isothermal titration calorimetry

- chemical-structure: "OC[C@@H]1NC[C@H](O)[C@H]1O"
  units-of-measure: "µM"
  Kd: 24
